- Tested on: HCC 2998
- MEASUREMENT DESCRIPTION: NCI tumour cell line growth inhibition, 48 h
Active and inactive are the calls of the source. Cut-off read from the data, not from the text of the source: active = GI50 up to about 1.1 µM and inactive = higher.
Consider the following compounds; for each one, report its GI50.

Ask: Record request: GI50 value, item N#CCC(=O)Nn1c(CC#N)nnc1Cc1ccccc1
Reply: > 100 µM (inactive)

Ask: Record request: GI50 value, item COC(=O)/C(C#N)=C1\NC(=O)CC(c2ccccc2)C1C#N (stereo not drawn)
Reply: > 100 µM (inactive)

Ask: Record request: GI50 value, item COc1ccc(/C=C2\C[C@H]3[C@@H]4CC=C5C[C@@H](OC(C)=O)CC[C@]5(C)[C@H]4CC[C@]3(C)C2=O)cc1OC
Reply: 58.3 µM (inactive)

====

- Tested on: UACC-257
- MEASUREMENT DESCRIPTION: NCI tumour cell line growth inhibition, 48 h
The source made the active and inactive calls. Cut-off read from the data, not from the text of the source: active = GI50 up to about 1.1 µM and inactive = higher.
VALUE KIND: GI50

Ask: Record request: GI50 value, item O=C(Oc1ccc(S(=O)(=O)F)cc1F)c1ccccc1Cl
Reply: 27.6 µM (inactive)

Ask: Record request: GI50 value, item Nc1nc(N)c2c(n1)NC(c1ccccc1)CC(/C=C/c1ccc(Cl)cc1)=N2 (stereo not given)
Reply: 2.25 µM (inactive)

Ask: Record request: GI50 value, item CCOc1ccc(NC2=CC(=O)C(=O)c3ccccc32)cc1
Reply: 1.63 µM (inactive)

Ask: Record request: GI50 value, item COc1ccc2c(CCNS(=O)(=O)c3ccccc3)c(C(C)=O)[nH]c2c1
Reply: > 32.4 µM (inactive)

Ask: Record request: GI50 value, item c1ccc2c(CN3CCN(Cc4c[nH]c5ccccc45)CC3)c[nH]c2c1
Reply: 14.4 µM (inactive)

Ask: Record request: GI50 value, item CC(=O)N[C@@H]1C(O)CN2C(=O)C(=O)O[C@H](C(O)CO)[C@@H]12 (stereo not given in full)
Reply: > 100 µM (inactive)

Ask: Record request: GI50 value, item O=C(NN1C(=O)CSC1c1ccc(Cl)c(Cl)c1)c1ccncc1 (stereo not given)
Reply: 54.2 µM (inactive)

Ask: Record request: GI50 value, item CCOC(=O)COc1ccccc1/C=C1\CCC(CN(C)C)C1=O (stereo not given)
Reply: 5.66 µM (inactive)

Ask: Record request: GI50 value, item O=C1OC(c2ccccc2)=N/C1=C\c1ccc(F)cc1
Reply: > 100 µM (inactive)

Ask: Record request: GI50 value, item Cc1ccc(/C=N\NC2c3cc(Cl)ccc3Nc3nc(O)nc(C)c32)cc1 (stereo not given)
Reply: 88.9 µM (inactive)

====

- Test system: OVCAR-4
- MEASUREMENT DESCRIPTION: NCI tumour cell line growth inhibition, 48 h
Calls of active or inactive are those of the source. No stated cut-off is given here; in the data, active = GI50 up to about 1.1 µM and inactive = higher.
Consider the following compounds; for each one, report its GI50.

Ask: Param readout= GI50; system= OVCAR-4; entry= O=C1C(Cl)=C(OCCCl)C(=O)c2c(O)ccc(O)c21 ; returns value.
Reply: 2.77 µM (inactive)

Ask: Param readout= GI50; system= OVCAR-4; entry= CC1CCCP(=O)(c2ccccc2)CC1 (configuration not stated) ; returns value.
Reply: > 100 µM (inactive)

Ask: Param readout= GI50; system= OVCAR-4; entry= c1ccc(C(=NNc2cnc3ccccc3n2)c2ccccn2)cc1 ; returns value.
Reply: 3.89 µM (inactive)

Ask: Param readout= GI50; system= OVCAR-4; entry= CCOC(=O)C1=C(C)NC(=S)NC1c1ccccc1 (configuration not stated) ; returns value.
Reply: 32.3 µM (inactive)

Ask: Param readout= GI50; system= OVCAR-4; entry= COc1cc(/C=C2\CCC(C)C3=C2NC(=S)NC3c2cc(OC)c(OC)c(OC)c2)cc(OC)c1OC (configuration not stated) ; returns value.
Reply: 69 µM (inactive)

Ask: Param readout= GI50; system= OVCAR-4; entry= O=C1OC2(c3ccc(O)cc3Oc3cc(O)ccc32)c2c1c(-c1ccccc1)c(-c1ccccc1)c(-c1ccccc1)c2-c1ccccc1 ; returns value.
Reply: 27.8 µM (inactive)

Ask: Param readout= GI50; system= OVCAR-4; entry= Cc1ccc(NC(=O)/C(CC(=O)c2c[n+]([O-])c3ccccc3[n+]2[O-])=N\NC(=O)C[n+]2ccccc2)cc1 ; returns value.
Reply: 64.1 µM (inactive)

Ask: Param readout= GI50; system= OVCAR-4; entry= CN(C)CCNC(=O)c1ccc(Cl)c2c(Nc3ccc(S(=O)(=O)N=C(N)N)cc3)c3ccccc3nc12 ; returns value.
Reply: 1.87 µM (inactive)

Ask: Param readout= GI50; system= OVCAR-4; entry= Cc1cc(S(=O)(=O)N/C(=C(\C#N)C(=O)c2ccccc2)[n+]2ccc(N(C)C)cc2)c([S-])cc1Cl ; returns value.
Reply: 69.8 µM (inactive)

Ask: Param readout= GI50; system= OVCAR-4; entry= COc1ccc(CN2C(=O)C(Cc3cc(OC)c(OC)c(C)c3OC)NC(=O)/C2=C/c2cc(OC)c(OC)c(C)c2OC)cc1 (configuration not stated) ; returns value.
Reply: 30.6 µM (inactive)

Ask: Param readout= GI50; system= OVCAR-4; entry= COc1cc(/C=C2\CCc3ccccc3C2=O)ccc1O ; returns value.
Reply: 18.5 µM (inactive)

Ask: Param readout= GI50; system= OVCAR-4; entry= CCCCC(=O)Nc1ccc2cc(C(=O)OC)c(ON3C(=O)c4ccccc4C3=O)nc2n1 ; returns value.
Reply: 28.1 µM (inactive)

Ask: Param readout= GI50; system= OVCAR-4; entry= CC(C)(C)OC(=O)CCC1NC(=O)[C@@H]2Cc3c([nH]c4ccccc34)C(c3ccccc3)N2C1=O (some centres not stated) ; returns value.
Reply: 32.7 µM (inactive)

Ask: Param readout= GI50; system= OVCAR-4; entry= COC(=O)N1C=CC2=C(C)C3Nc4ccccc4C3C(C)=C2C1 (configuration not stated) ; returns value.
Reply: 1.34 µM (inactive)

Ask: Param readout= GI50; system= OVCAR-4; entry= NNC(=O)c1nnn(N)c1S ; returns value.
Reply: > 100 µM (inactive)

Ask: Param readout= GI50; system= OVCAR-4; entry= COC(=O)C1(CCCCCBr)CCCCCCCCCCC1=O (configuration not stated) ; returns value.
Reply: 19.8 µM (inactive)

Ask: Param readout= GI50; system= OVCAR-4; entry= O=C1c2[nH]c3ccccc3c2CCN2CCCCC12 (configuration not stated) ; returns value.
Reply: 27.5 µM (inactive)

Ask: Param readout= GI50; system= OVCAR-4; entry= CCCCN1C=CN2c3nc4cc(C)c(C)cc4n3C(C(=O)OC)=C(C(=O)OC)C12 (configuration not stated) ; returns value.
Reply: > 100 µM (inactive)

Ask: Param readout= GI50; system= OVCAR-4; entry= COc1ccc(/C=N/Nc2nc(C)c3c(n2)Nc2ccccc2NC3=O)cc1 ; returns value.
Reply: > 100 µM (inactive)

Ask: Param readout= GI50; system= OVCAR-4; entry= CC(=O)OCC1OC(n2c(-c3ccccc3)c(/N=N/c3ccccc3)c(C)c(C#N)c2=S)C(OC(C)=O)C(OC(C)=O)C1OC(C)=O (configuration not stated) ; returns value.
Reply: > 100 µM (inactive)

Ask: Param readout= GI50; system= OVCAR-4; entry= O=C1/C(=C/c2ccc([N+](=O)[O-])cc2)CCCc2ccccc21 ; returns value.
Reply: > 100 µM (inactive)

Ask: Param readout= GI50; system= OVCAR-4; entry= NC(=S)N/N=C1\NC(=O)/C(=C/c2ccc3c(c2)OCO3)S1 ; returns value.
Reply: 24.3 µM (inactive)

Ask: Param readout= GI50; system= OVCAR-4; entry= CCc1cccc(=O)c([O-])c1.CCc1cccc(=O)c([O-])c1.[Bi+3].[Cl-] ; returns value.
Reply: 13.6 µM (inactive)

Ask: Param readout= GI50; system= OVCAR-4; entry= c1c(N2CCOCC2)s[s+]c1N1CCOCC1 ; returns value.
Reply: > 100 µM (inactive)

Ask: Param readout= GI50; system= OVCAR-4; entry= COc1ccc2nc(-c3ccc(O)cc3)sc2c1 ; returns value.
Reply: 28.5 µM (inactive)

Ask: Param readout= GI50; system= OVCAR-4; entry= Br[Se]c1ccccn1 ; returns value.
Reply: 16.9 µM (inactive)

Ask: Param readout= GI50; system= OVCAR-4; entry= CC1C2CC(CC(=O)N2)C1(C)C (configuration not stated) ; returns value.
Reply: > 100 µM (inactive)

Ask: Param readout= GI50; system= OVCAR-4; entry= COC(=O)C1=C(C(=O)OC)SC(=C(/N=N/c2ccccc2)c2ccccc2)S1 ; returns value.
Reply: > 100 µM (inactive)

Ask: Param readout= GI50; system= OVCAR-4; entry= N#CC1C=Cc2ccccc2N1C(=O)Oc1ccccc1 (configuration not stated) ; returns value.
Reply: 40.6 µM (inactive)

Ask: Param readout= GI50; system= OVCAR-4; entry= COc1cc(C(=O)OC2CC34CCNC35CC(OC5(OC)C2O)c2cc3c(cc24)OCO3)ccc1O (configuration not stated) ; returns value.
Reply: > 100 µM (inactive)

Ask: Param readout= GI50; system= OVCAR-4; entry= COc1ccc(NC(=O)CSc2nnc(Cc3ccccc3)o2)cc1 ; returns value.
Reply: > 100 µM (inactive)

Ask: Param readout= GI50; system= OVCAR-4; entry= Cc1cc(Cl)ccc1NC(=O)CCCC(=O)C(C(=O)c1ccccc1)c1ccccc1 (configuration not stated) ; returns value.
Reply: > 100 µM (inactive)

Ask: Param readout= GI50; system= OVCAR-4; entry= COc1ccc2cccc(C(=O)c3ccc(C)c4c3CCC4)c2c1 ; returns value.
Reply: 85.5 µM (inactive)

Ask: Param readout= GI50; system= OVCAR-4; entry= O[C@@H]1CCC[C@@H]2NC[C@@H](c3ccc4c(c3)OCO4)[C@H]12 ; returns value.
Reply: > 100 µM (inactive)

Ask: Param readout= GI50; system= OVCAR-4; entry= CC(=O)N1CC(C)(C)c2c(C)c(O)c(C)c(C)c21 ; returns value.
Reply: > 100 µM (inactive)

Ask: Param readout= GI50; system= OVCAR-4; entry= Nc1nc(Cl)c(N)c(NCC2(CO)CCC(CCc3ccccc3)C2)n1 (configuration not stated) ; returns value.
Reply: 17.3 µM (inactive)

Ask: Param readout= GI50; system= OVCAR-4; entry= OC1C[C@H](c2ccccc2)C2(C(O)c3ccccc3C2O)[C@@H](c2ccccc2)C1 (some centres not stated) ; returns value.
Reply: > 100 µM (inactive)

Ask: Param readout= GI50; system= OVCAR-4; entry= Cc1cc(S(=O)(=O)N=C2N(Cc3ccccc3)CCN2Cc2ccccc2)c(S)cc1Cl ; returns value.
Reply: > 100 µM (inactive)

Ask: Param readout= GI50; system= OVCAR-4; entry= O=C(Oc1ccc(S(=O)(=O)F)cc1F)c1ccccc1Cl ; returns value.
Reply: 30.1 µM (inactive)

Ask: Param readout= GI50; system= OVCAR-4; entry= COC(=O)/C(C#N)=C1\NC(=O)CC(c2ccccc2)C1C#N (configuration not stated) ; returns value.
Reply: > 100 µM (inactive)

Ask: Param readout= GI50; system= OVCAR-4; entry= COc1nc(N)c(NC(C)=O)c(=O)n1C ; returns value.
Reply: > 100 µM (inactive)

Ask: Param readout= GI50; system= OVCAR-4; entry= CC1(C)[C@@H]2CC[C@@]1(C)[C@H](O)[C@@H]2SCc1ccccc1 ; returns value.
Reply: 12.9 µM (inactive)
